- target_entity: Hsp90α (Homo sapiens, UniProt P07900)
- test_name: Hsp90α binding assay (fluorescence polarization, FITC-labeled geldanamycin)
measure: EC50 (nM)
Give bare numbers, in nM.

compound="CCc1c2c(nc3ccc(OC(=O)N(C)C4CCN(C(=O)CCn5ccc6cc(-n7c(O)nnc7-c7cc(C(C)C)c(O)cc7O)ccc65)CC4)cc13)-c1cc3c(c(=O)n1C2)COC(=O)C3(O)CC (centres unmarked)" observed=86.6

// next entry
Task item: Consider the compound `CCc1c2c(nc3ccc(OC(=O)N4CCC(CCn5ccc6cc(-n7c(O)nnc7-c7cc(C(C)C)c(O)cc7O)ccc65)CC4)cc13)-c1cc3c(c(=O)n1C2)COC(=O)[C@]3(O)CC` and give its measured EC50.
Reply: 158
